# Tested on: barnyardgrass (Echinochloa crus-galli)
# protocol-details: Test C preemergence, visual plant response rating
# Format: in vivo
# experimental-context: Test C, 31 g ai/ha, 0 is no effect, 100 is complete control
Output Met for Barnyardgrass plant response rating (0 to 100 scale) not less than 40; output Not met otherwise.

# input I'd appreciate it if you could say whether C#CCO/N=C(/c1c(O)c(C)nn(C)c1=O)c1cc(Cl)cc2ccccc12 has Barnyardgrass plant response rating (0 to 100 scale) at least equal to 40.
# output Not met

# input Please indicate if the recorded Barnyardgrass plant response rating (0 to 100 scale) for C#CCON=C(c1cccc(OC(F)F)c1)c1c(O)c(C)nn(C)c1=O meets or exceeds 40.
# output Not met

# input // inclusive: Barnyardgrass plant response rating (0 to 100 scale) at least 40? input: CCON=C(c1cc(Cl)cc(Br)c1)c1c(O)c(C)nn(C)c1=O [Compound 181]
# output Not met

# input Does the compound CO/N=C(\c1cc(F)cc(F)c1C)c1c(O)c(C)nn(C)c1=O have recorded Barnyardgrass plant response rating (0 to 100 scale) that is 40 or more?
# output Not met

# input For this compound, is measured Barnyardgrass plant response rating (0 to 100 scale) 40 or higher? C#CCO/N=C(/c1cccc(Br)c1)c1c(O)c(C)nn(C)c1=O
# output Not met

# input Given CCO/N=C(\c1c(O)cnn(C)c1=O)c1ccc(F)c2ccccc12 , state whether its Barnyardgrass plant response rating (0 to 100 scale) is at least 40.
# output Not met

# input Answer whether Barnyardgrass plant response rating (0 to 100 scale) of CO/N=C(\c1cc(Cl)c(F)c(Cl)c1)c1c(O)c(C)nn(C)c1=O is greater than or equal to 40.
# output Not met

# input Does Cc1nn(C)c(=O)c(C(=NOC(C)C)c2cc(Cl)cc(Cl)c2Cl)c1O have a reported Barnyardgrass plant response rating (0 to 100 scale) of at least 40?
# output Not met

# input Given C#CCO/N=C(/c1cccc(/C=C\Cl)c1)c1c(O)c(C)nn(C)c1=O , state whether its Barnyardgrass plant response rating (0 to 100 scale) is at least 40.
# output Not met

# input In plain terms: is recorded Barnyardgrass plant response rating (0 to 100 scale) at least 40 for CON=C(c1cc(C)cc(Cl)c1)c1c(O)c(C)nn(C)c1=O ?
# output Met

# input Quick check: does C#CCO/N=C(/c1c(O)c(C)nn(C)c1=O)c1cccc2cc(Cl)ccc12 have Barnyardgrass plant response rating (0 to 100 scale) greater than or equal to 40?
# output Met

# input Decide: is the reported value of Barnyardgrass plant response rating (0 to 100 scale) for CO/N=C(\c1cccc(/C=C/Cl)c1)c1c(O)c(C)nn(C)c1=O equal to or greater than 40?
# output Met

# input Hi, just wondering whether C#CCO/N=C(\c1cc(C)cc(Cl)c1)c1c(O)c(C)nn(C)c1=O shows Barnyardgrass plant response rating (0 to 100 scale) of 40 or higher.
# output Met

# input hey, is Barnyardgrass plant response rating (0 to 100 scale) for this one >= 40? Cc1nn(C)c(=O)c(/C(=N/OC(C)C)c2cc(Cl)cc(Cl)c2Cl)c1O
# output Not met

# input Item CCON=C(c1cc(Cl)cc(Br)c1)c1c(O)c(C)nn(C)c1=O [Compound 180] with Barnyardgrass plant response rating (0 to 100 scale) of 40 or above?
# output Not met

# input Can CON=C(c1cc(Cl)cc(Cl)c1)c1c(O)c(C)nn(C)c1=O be said to have Barnyardgrass plant response rating (0 to 100 scale) at or above 40?
# output Not met
